Property: IC50; scope: individual compounds
system-tested: Disintegrin and metalloproteinase domain-containing protein 17 (Homo sapiens, UniProt P78536)
Sequence (P78536 whole entry, the tested form may be a part): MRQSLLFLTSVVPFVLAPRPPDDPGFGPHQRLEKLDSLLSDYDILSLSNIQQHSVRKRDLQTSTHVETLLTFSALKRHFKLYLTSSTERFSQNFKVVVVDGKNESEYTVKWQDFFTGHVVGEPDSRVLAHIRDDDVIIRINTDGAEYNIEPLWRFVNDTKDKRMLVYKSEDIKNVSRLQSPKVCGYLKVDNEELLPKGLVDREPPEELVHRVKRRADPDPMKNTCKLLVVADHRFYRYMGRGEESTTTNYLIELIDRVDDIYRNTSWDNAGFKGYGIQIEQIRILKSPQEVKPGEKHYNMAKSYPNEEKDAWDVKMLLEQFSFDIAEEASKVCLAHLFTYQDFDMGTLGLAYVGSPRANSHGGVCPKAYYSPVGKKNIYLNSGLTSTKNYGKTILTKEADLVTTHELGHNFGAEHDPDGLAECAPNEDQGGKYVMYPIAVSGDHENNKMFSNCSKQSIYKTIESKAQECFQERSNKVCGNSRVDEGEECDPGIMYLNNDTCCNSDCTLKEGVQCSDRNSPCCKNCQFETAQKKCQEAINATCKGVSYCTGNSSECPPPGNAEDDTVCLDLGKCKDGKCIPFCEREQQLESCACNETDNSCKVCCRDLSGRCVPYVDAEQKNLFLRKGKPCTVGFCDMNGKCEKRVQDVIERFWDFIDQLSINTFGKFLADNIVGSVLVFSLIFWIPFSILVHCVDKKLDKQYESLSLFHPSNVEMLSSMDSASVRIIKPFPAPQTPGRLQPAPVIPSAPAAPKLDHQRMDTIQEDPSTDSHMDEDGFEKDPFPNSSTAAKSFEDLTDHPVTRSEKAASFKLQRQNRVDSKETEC
protocol-notes: Inhibition of TACE in human PBMC assessed as inhibition of LPS-stimulated TNFalpha production
Your answer should be a plain number; it is taken to be in µM.

[
  {
    "record-smiles": "COc1cc(COc2ccc3c(c2)NCCN([C@@H](C(=O)NO)C(C)C)S3)cc(OC)c1",
    "IC50 (µM)": 4
  },
  {
    "record-smiles": "COC(=O)CC[C@H](C(=O)NO)N1CCNc2cc(OCc3cc(OC)cc(OC)c3)ccc2S1",
    "IC50 (µM)": 7.2
  },
  {
    "record-smiles": "C[C@H](C(=O)NO)N1CCNc2cc(Oc3cccc([N+](=O)[O-])c3)ccc2S1",
    "IC50 (µM)": 0.47
  },
  {
    "record-smiles": "CCOc1cc(COc2ccc3c(c2)NCCN([C@H](C)C(=O)NO)S3)cc(OCC)c1",
    "IC50 (µM)": 4.5
  }
]

## Task Give a short answer stating reported IC50 for CCOc1cc(COc2ccc3c(c2)NCCN([C@@H](C(=O)NO)C(C)C)S3)cc(OCC)c1 .
## Result 8.2

====

system-tested: Disintegrin and metalloproteinase domain-containing protein 17 (Homo sapiens, UniProt P78536)
protocol-notes: Inhibition of recombinant human TACE catalytic domain using Mca-Pro-Leu-Ala-Gln-Ala-Val-Dpa-Arg-Ser-Ser-Ser-Arg-NH2 as substrate after 2 hrs by fluorescence assay
endpoint-label: pIC50
Please express pIC50 as -log10 of the molar concentration.

# annotated cases, reported pIC50 shown
[
  {
    "compound": "Cc1cc(COc2ccc(S(=O)(=O)N3CCN(C(=O)C(C)C)C(C(=O)NO)C3)cc2)c2c(n1)CCCC2 (stereo unspecified)",
    "pIC50": 7.59
  },
  {
    "compound": "Cc1cc(COc2ccc(S(=O)(=O)N3CCN(C(=O)C4CC4)C(C(=O)NO)C3)cc2)c2c(n1)CCCC2 (stereo unspecified)",
    "pIC50": 7.89
  },
  {
    "compound": "Cc1cc(COc2ccc(S(=O)(=O)N3CCCOC(C(=O)NO)C3)cc2)c2ccccc2n1 (stereo unspecified)",
    "pIC50": 7.15
  },
  {
    "compound": "Cc1cc(COc2ccc(S(=O)(=O)N3CCOC(C(=O)NO)C3)cc2)c2ccccc2n1 (stereo unspecified)",
    "pIC50": 6.74
  },
  {
    "compound": "Cc1cc(COc2ccc(C(=O)N3CCC(C(=O)NO)C3)cc2)c2c(n1)CCCC2 (stereo unspecified)",
    "pIC50": 5.19
  }
]

From here, focus on the item given below.
## Task Give a short answer stating reported pIC50 for Cc1cc(COc2ccc(S(=O)(=O)N3CCNC(C(=O)NO)C3)cc2)c2c(n1)CCCC2 (stereo unspecified) .
## Result 6.96

====

system-tested: Disintegrin and metalloproteinase domain-containing protein 17 (Mus musculus)
Sequence (Q9Z0F8 whole entry, the tested form may be a part): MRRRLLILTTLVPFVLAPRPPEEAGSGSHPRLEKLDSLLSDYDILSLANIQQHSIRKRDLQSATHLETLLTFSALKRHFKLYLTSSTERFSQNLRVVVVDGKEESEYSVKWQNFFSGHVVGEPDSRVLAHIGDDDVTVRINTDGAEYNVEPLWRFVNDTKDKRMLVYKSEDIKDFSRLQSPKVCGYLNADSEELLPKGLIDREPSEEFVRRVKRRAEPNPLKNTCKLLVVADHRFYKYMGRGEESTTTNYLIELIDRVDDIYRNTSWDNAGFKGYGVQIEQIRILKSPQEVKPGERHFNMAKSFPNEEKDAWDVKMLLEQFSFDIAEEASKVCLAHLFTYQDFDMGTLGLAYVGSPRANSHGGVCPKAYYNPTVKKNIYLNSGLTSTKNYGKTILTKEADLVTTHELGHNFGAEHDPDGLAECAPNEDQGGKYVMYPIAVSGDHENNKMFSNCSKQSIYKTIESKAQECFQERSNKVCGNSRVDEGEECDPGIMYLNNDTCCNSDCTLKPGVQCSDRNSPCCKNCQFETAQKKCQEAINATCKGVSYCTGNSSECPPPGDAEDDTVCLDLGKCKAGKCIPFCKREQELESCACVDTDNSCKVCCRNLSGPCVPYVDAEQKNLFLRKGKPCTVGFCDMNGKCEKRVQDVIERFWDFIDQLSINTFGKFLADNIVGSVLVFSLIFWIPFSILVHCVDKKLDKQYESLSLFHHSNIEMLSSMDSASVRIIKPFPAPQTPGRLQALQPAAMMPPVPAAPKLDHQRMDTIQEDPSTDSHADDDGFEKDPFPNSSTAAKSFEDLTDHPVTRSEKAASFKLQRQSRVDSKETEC
protocol-notes: Inhibition of TACE in mouse RAW264.7 cells assessed as inhibition of LPS-stimulated TNFalpha production pretreated for 1 hr followed by LPS stimulation for 4 hrs by ELISA
Format: cell-based
experimental-parameters: read-out: IC50
Property: IC50; scope: individual molecules
Your answer should be a plain number; it is taken to be in nM.

[
  {
    "molecule": "C#CCN1C[C@H](C(=O)NO)[C@H](NS(=O)(=O)c2ccc(OCc3cc(C)nc4ccccc34)cc2)C1 (relative stereo)",
    "test-value": 90
  }
]

## Task Identify measured IC50 obtained with Disintegrin and metalloproteinase domain-containing protein 17 (Mus musculus) for Cc1cc(COc2ccc(S(=O)(=O)N[C@@H]3CCOC[C@]3(C)C(=O)NO)cc2)c2ccccc2n1 .
## Result 1670

## Task Identify measured IC50 obtained with Disintegrin and metalloproteinase domain-containing protein 17 (Mus musculus) for Cc1cc(COc2ccc(S(=O)(=O)N(C)[C@@H]3CCOC[C@@H]3C(=O)NO)cc2)c2ccccc2n1 (relative stereo) .
## Result 1000

## Task Identify measured IC50 obtained with Disintegrin and metalloproteinase domain-containing protein 17 (Mus musculus) for Cc1cc(COc2ccc(S(=O)(=O)N(C)C3C(C(=O)NO)[C@@H]4CC[C@H]3O4)cc2)c2ccccc2n1 (relative stereo; form 2) .
## Result 18

## Task Identify measured IC50 obtained with Disintegrin and metalloproteinase domain-containing protein 17 (Mus musculus) for Cc1cc(COc2ccc(S(=O)(=O)N[C@@H]3CCOC[C@@]3(C)C(=O)NO)cc2)c2ccccc2n1 .
## Result 1920

## Task Identify measured IC50 obtained with Disintegrin and metalloproteinase domain-containing protein 17 (Mus musculus) for Cc1cc(COc2ccc(S(=O)(=O)N[C@@H]3CN(C(=O)OC(C)(C)C)CC[C@H]3C(=O)NO)cc2)c2ccccc2n1 .
## Result 58

## Task Identify measured IC50 obtained with Disintegrin and metalloproteinase domain-containing protein 17 (Mus musculus) for Cc1cc(COc2ccc(S(=O)(=O)N[C@@H]3CN(C(=O)NC(C)(C)C)CC[C@@H]3C(=O)NO)cc2)c2ccccc2n1 .
## Result 58
